B1: WDFY1 (parent)
chain: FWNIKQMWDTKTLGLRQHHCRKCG

Variants of: B1
Assay: protein stability index of a GFP-peptide fusion (GPS, HEK-293T) (PSI 1-6); higher = more stable;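 further: lentivirally expressed fusions sorted by FACS into six bins by GFP to DsRed ratio, PSI derived from sequencing read proportions per bin multiplied by bin number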
Details: c terminus: a fixed tail appended
Outcome label depends on protein stability index relative to 2: at/above gives T, below gives F.

{"columns": ["mutant.code", "class"],
 "data": [
  ["K11S", "T"],
  ["N3K", "F"],
  ["I4V", "T"],
  ["C20R", "T"],
  ["L15C", "F"],
  ["N3H", "F"],
  ["R21C", "T"],
  ["C23P", "T"],
  ["L13H", "T"],
  ["M7N", "T"],
  ["T12N", "F"],
  ["N3A", "F"],
  ["L15I", "F"],
  ["K5I", "T"],
  ["K11T", "T"],
  ["C23I", "F"],
  ["Q6C", "T"],
  ["K5W", "T"],
  ["G24N", "T"],
  ["W2A", "T"]
]}
